Taken from patent US9670227B2.

Could you please report measured IC50 for the items listed next?
# TESTED TARGET: Mcl-1 protein (UniProtKB primary accession number: Q07820) (Homo sapiens, UniProt Q07820)
# Sequence (Q07820 whole entry): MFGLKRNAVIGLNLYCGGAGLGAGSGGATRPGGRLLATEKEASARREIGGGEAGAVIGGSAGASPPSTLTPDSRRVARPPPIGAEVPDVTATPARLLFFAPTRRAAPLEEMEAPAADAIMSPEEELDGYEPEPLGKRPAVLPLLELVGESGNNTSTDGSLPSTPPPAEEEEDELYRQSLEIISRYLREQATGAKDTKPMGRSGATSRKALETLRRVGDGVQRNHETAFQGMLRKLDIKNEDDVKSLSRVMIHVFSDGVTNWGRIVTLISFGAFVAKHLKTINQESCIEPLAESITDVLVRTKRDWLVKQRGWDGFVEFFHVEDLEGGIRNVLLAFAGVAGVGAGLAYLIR
# EXPERIMENT: Inhibition of Mcl-1 by fluorescence polarisation, Method 1
# Format: binding
# CONDITIONS USED: fluorescence polarisation test; Method 2 values are underlined in the patent (underlining not visible here); read-out: IC50 (M) Mcl-1 FP

Please review the entries below; each comes with its answer.
MOLECULE	VAL
COc1ccccc1CC(Oc1ncnc2sc(-c3ccc(Cl)o3)c(-c3ccc(OCCN4CCN(C)CC4)c(Cl)c3C)c12)C(=O)O (stereo not drawn)	7.7e-09 M
Cc1c(-c2c(-c3ccc(F)cc3)sc3ncnc(OC(Cc4ccccc4OCc4cncnc4)C(=O)O)c23)ccc(OCCN2CCN(C)CC2)c1Cl (stereo not drawn)	1.4e-08 M

Kindly consider the entry below.
Can you look up the measured IC50 of CCOCCn1nccc1COc1ccccc1CC(Oc1ncnc2sc(-c3ccc(F)cc3)c(-c3ccc(OCCN4CCN(C)CC4)c(Cl)c3C)c12)C(=O)O (stereo not drawn) for me?
6.5e-09 M
